# test-target: human CH24H (Homo sapiens, UniProt Q9Y6A2)
# Construct: Using Full-Length Mammalian Gene Collection No. 4819975 (Invitrogen) as a template; made in house; host or cells: FreeStyle 293-F cells, transient transfection with pcDNA3.1(+)/hCH24H; lysate supernatant, not purified
# Sequence (Q9Y6A2 whole entry): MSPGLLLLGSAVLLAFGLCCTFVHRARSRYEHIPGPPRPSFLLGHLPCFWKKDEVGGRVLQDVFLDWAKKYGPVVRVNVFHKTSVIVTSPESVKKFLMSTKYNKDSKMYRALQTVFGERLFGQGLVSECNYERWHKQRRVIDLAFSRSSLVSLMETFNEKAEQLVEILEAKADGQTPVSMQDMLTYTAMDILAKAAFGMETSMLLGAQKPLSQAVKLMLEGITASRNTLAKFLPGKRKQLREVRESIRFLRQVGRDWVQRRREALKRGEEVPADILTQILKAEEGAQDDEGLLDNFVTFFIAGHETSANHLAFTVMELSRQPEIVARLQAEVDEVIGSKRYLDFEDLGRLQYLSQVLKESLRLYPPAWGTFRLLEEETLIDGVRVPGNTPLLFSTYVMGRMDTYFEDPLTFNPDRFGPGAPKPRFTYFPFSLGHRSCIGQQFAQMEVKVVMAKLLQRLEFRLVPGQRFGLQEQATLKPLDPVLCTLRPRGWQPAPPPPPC
# measurement-notes: Measurement of CH24H inhibitory activity (24-HC produced from [14C] cholesterol by human CH24H lysate)
# Format: biochemical
# condition-parameters: 1 μM test compound, [14C] cholesterol 15 μM, 37° C. for 5 hr, read-out: Inhibitory Rate in 1 μM (%)
measured-endpoint: inhibition at 1 µM (%)

# compound, measured-endpoint, data-value
rows = [
    ("O=C(N1CCN(c2cnccc2-c2ccccc2)CC1)N1CCC1c1ccc(F)cc1 (stereo not shown)", "inhibition at 1 µM", 87),
    ("CC1(C)CCCN1C(=O)C1CCN(c2cnccc2-n2cc(Cl)cn2)CC1", "inhibition at 1 µM", 98),
    ("CN(C(=O)C1CCN(c2cncnc2-c2ccc(F)cc2)CC1)[C@@H]1CCOC1", "inhibition at 1 µM", 82),
    ("Cc1cnn(-c2ccncc2N2CCC(C(=O)N(CCF)[C@@H]3CCOC3)CC2)c1", "inhibition at 1 µM", 82),
]

====

# test-target: human CH24H (Homo sapiens, UniProt Q9Y6A2)
# Construct: Using Full-Length Mammalian Gene Collection No. 4819975 (Invitrogen) as a template; made in house; host or cells: FreeStyle 293-F cells, transient transfection with pcDNA3.1(+)/hCH24H; lysate supernatant, not purified
# measurement-notes: Measurement of CH24H inhibitory activity (24-HC produced from [14C] cholesterol by human CH24H lysate)
# Type: biochemical
# condition-parameters: 1 μM test compound, [14C] cholesterol 15 μM, 37° C. for 5 hr, read-out: Inhibitory Rate in 1 μM (%)
measured-endpoint: inhibition at 1 µM (%)

# record-smiles, data-value
records = [
    ("CNC(=O)C1CCN(c2cnccc2-n2cc(C(F)(F)F)cn2)CC1", 90),
    ("Cc1cnc(-c2ccncc2N2CCC(C(=O)N(C)C)CC2)o1", 80),
    ("Cc1cnn(-c2ccncc2N2CCC(C(=O)N(C)C3CC3)CC2)c1", 98),
    ("CN(C(=O)C1CCN(c2cncnc2-c2ccc(F)cc2)CC1)C1CC1", 94),
    ("Cc1cnn(-c2ccncc2N2CCC(C(=O)N3CCC[C@H]3C(N)=O)CC2)c1", 86),
]

====

# test-target: human CH24H (Homo sapiens, UniProt Q9Y6A2)
# Construct: Using Full-Length Mammalian Gene Collection No. 4819975 (Invitrogen) as a template; made in house; host or cells: FreeStyle 293-F cells, transient transfection with pcDNA3.1(+)/hCH24H; lysate supernatant, not purified
# measurement-notes: Measurement of CH24H inhibitory activity (24-HC produced from [14C] cholesterol by human CH24H lysate)
# Type: biochemical
# condition-parameters: 1 μM test compound, [14C] cholesterol 15 μM, 37° C. for 5 hr, read-out: Inhibitory Rate in 1 μM (%)
measured-endpoint: inhibition at 1 µM (%)

# molecule, unit-symbol, data-value
rows = [
    ("CO[C@@H]1C[C@H](C#N)N(C(=O)C2CCN(c3cnccc3-n3cc(C)cn3)CC2)C1 [Example 138]", "%", 93),
    ("CN(C)C(=O)C1CCN(c2cnccc2-n2cc(C#N)cn2)CC1 [Example 83]", "%", 74),
    ("N#C[C@H]1CCCN1C(=O)C1CCN(c2cnccc2-c2ccccn2)CC1 [Example 142]", "%", 93),
    ("CO[C@H]1CCN(C(=O)C2CCN(c3cncnc3-c3ccc(F)cc3)CC2)C1 [Example 303]", "%", 85),
    ("CNC(=O)N1CCN(c2cncnc2-c2ccccc2)CC1 [Example 177]", "%", 92),
    ("C[C@H]1CN(c2cncnc2-c2ccccc2)CCN1C(=O)CC1CC1 [Example 170]", "%", 86),
    ("CO[C@@H]1CCN(C(=O)C2CCN(c3cncnc3-c3ccc(F)cc3)CC2)C1 [Example 304]", "%", 86),
    ("O=C(C1CCN(c2cnccc2-n2cc(Cl)cn2)CC1)N1CC[C@H](F)C1 [Example 284]", "%", 80),
    ("O=C(C1CCN(c2cnccc2-n2cc(C3CC3)cn2)CC1)N1CC(F)C1 [Example 323]", "%", 93),
    ("COC[C@H]1CCCN1C(=O)C1CCN(c2cnccc2-c2nnc(C)s2)CC1 [Example 133]", "%", 87),
]

[A] Cc1cnn(-c2ccncc2N2CCC(C(=O)N3CC(F)(F)C[C@H]3C#N)CC2)c1 [Example 121]
[B] O=C(CC1CC1)N1C[C@@H]2C[C@H]1CN2c1cnccc1-c1ccccc1 [Example 161]
Field: entry with larger inhibition at 1 µM (options A / B ). # answer = label of selected item
A

====

# test-target: human CH24H (Homo sapiens, UniProt Q9Y6A2)
# Construct: Using Full-Length Mammalian Gene Collection No. 4819975 (Invitrogen) as a template; made in house; host or cells: FreeStyle 293-F cells, transient transfection with pcDNA3.1(+)/hCH24H; lysate supernatant, not purified
# measurement-notes: Measurement of CH24H inhibitory activity (24-HC produced from [14C] cholesterol by human CH24H lysate)
# Assay type: biochemical
# condition-parameters: 1 μM test compound, [14C] cholesterol 15 μM, 37° C. for 5 hr, read-out: Inhibitory Rate in 1 μM (%)
measured-endpoint: inhibition at 1 µM (%)

# compound, unit-symbol, data-value
measured = [
    ("Cc1cnn(-c2ccncc2N2CCC(C(=O)N3CC[C@H](F)C3)CC2)c1 [Example 282]", "%", 83),
    ("CO[C@@H]1CCN(C(=O)C2CCN(c3cnccc3-n3cc(Cl)cn3)CC2)C1 [Example 300]", "%", 83),
    ("Cc1cnn(-c2ccncc2N2CCN(C(=O)N(C)Cc3ccc(F)cc3)CC2)c1 [Example 297]", "%", 84),
    ("Cc1cnn(-c2ccncc2N2CCC(C(=O)Nc3ccccc3)CC2)c1 [Example 73]", "%", 97),
    ("O=C(NCc1ccccn1)N1CCN(c2cncnc2-c2ccccc2)CC1 [Example 188]", "%", 81),
    ("CN(C(=O)C1CCN(c2cnccc2-n2cc(Cl)cn2)CC1)C1CCOCC1 [Example 54]", "%", 99),
    ("N#C[C@@H]1CC(F)(F)CN1C(=O)C1CCN(c2cnccc2-n2cc(Cl)cn2)CC1 [Example 119]", "%", 93),
    ("Cc1cnn(-c2ccncc2N2CCC(C(=O)N3CCC[C@@H]3C(N)=O)CC2)c1 [Example 124]", "%", 81),
    ("O=C(C1CCN(c2cnccc2-c2ccccn2)CC1)N1CC(F)(F)C1 [Example 213]", "%", 93),
    ("Cc1nnc(-c2ccncc2N2CCC(C(=O)N3CCC[C@]3(C)C#N)CC2)s1 [Example 128]", "%", 97),
    ("Cc1nnc(-c2ccncc2N2CCC(C(=O)N3CCC[C@@H]3C#N)CC2)s1 [Example 87]", "%", 98),
    ("Cc1cnc(-c2ccncc2N2CCC(C(=O)N3CC[C@H](F)C3)CC2)s1 [Example 316]", "%", 94),
    ("CN(Cc1ccccc1)C(=O)N1CCN(c2cncnc2-c2ccccc2)CC1 [Example 298]", "%", 79),
    ("Cc1cnn(-c2ccncc2N2[C@@H]3CC[C@H]2C[C@H](C(=O)N(C)C)C3)c1 [Example 13]", "%", 89),
    ("O=C(CCn1ncc2ccccc21)N1CCN(c2cnccc2-c2ccccc2)CC1 [Example 183]", "%", 92),
    ("Cc1cnn(-c2ccncc2N2CCC(C(=O)N(CCF)C3CCOCC3)CC2)c1 [Example 311]", "%", 79),
    ("CC(C)C1CCCN1C(=O)C1CCN(c2cnccc2-n2cc(Cl)cn2)CC1 (stereo not drawn) [Example 29]", "%", 97),
    ("O=C(C1CCN(c2cnccc2-n2cc(Br)cn2)CC1)N1CC(F)C1 [Example 319]", "%", 96),
]

====

# test-target: human CH24H (Homo sapiens, UniProt Q9Y6A2)
# Construct: Using Full-Length Mammalian Gene Collection No. 4819975 (Invitrogen) as a template; made in house; host or cells: FreeStyle 293-F cells, transient transfection with pcDNA3.1(+)/hCH24H; lysate supernatant, not purified
# measurement-notes: Measurement of CH24H inhibitory activity (24-HC produced from [14C] cholesterol by human CH24H lysate)
# Format: biochemical
# condition-parameters: 1 μM test compound, [14C] cholesterol 15 μM, 37° C. for 5 hr, read-out: Inhibitory Rate in 1 μM (%)
measured-endpoint: inhibition at 1 µM (%)

# compound, unit-symbol, inhibition at 1 µM
records = [
    ("O=C(C1CCN(c2cncnc2-c2ccc(F)cc2)CC1)N1CC[C@H](F)C1 [Example 286]", "%", 83),
    ("Cc1cnc(-c2ccncc2N2CCC(C(=O)N3CC(F)C3)CC2)s1 [Example 317]", "%", 95),
    ("O=C(N1CCN(c2cncnc2-c2ccccc2)CC1)N(CCF)Cc1ccccc1 [Example 314]", "%", 91),
    ("CN(C(=O)C1CCN(c2cncnc2-c2ccc(F)cc2)CC1)[C@H]1CCOC1 [Example 309]", "%", 85),
]
